Every entry's value here was drawn from paper PMC2430196.

- targetOrSystem: UniProtKB Q9Y5N1
- measurementProtocol: CRE-SPAP gene transcription in forskolin-stimulated CHO-H3-SPAP cells
- studyConditions: CRE-SPAP; agonist imetit; 3 antagonist concentrations
Catalogue of Schild slope values
Give the figure only, with no unit attached.

Past entries and their recorded results:
molecule=c1cc(CN2CCCCC2)cc(OCCCNc2nc3ccccc3s2)c1 numericreadout=1.17
molecule=C[C@H]1[C@H]2CC[C@H]3[C@@H]4CC=C5C[C@@H](N(C)C)CC[C@]5(C)[C@H]4CC[C@]23CN1C numericreadout=1.18
molecule="S=C(NC1CCCCC1)N1CCC(c2cnc[nH]2)CC1 [thioperamide]" numericreadout=1.02

Here's the next entry for you.
Recorded Schild slope for NC(=NCc1ccc(Cl)cc1)SCCCc1cnc[nH]1 , please? 1.02

###

- targetOrSystem: human histamine H3 receptor (Homo sapiens)
- measurementProtocol: CRE-SPAP gene transcription in forskolin-stimulated CHO-H3-SPAP cells
- studyConditions: CRE-SPAP; agonist R-α-methylhistamine; 3 antagonist concentrations
observable: Schild slope
Give the figure only, with no unit attached.

compound=NC(=NCc1ccc(Cl)cc1)SCCCc1cnc[nH]1 targetorsystem="human histamine H3 receptor (Homo sapiens)" observable="Schild slope" numericreadout=1.10
compound=C[C@H]1[C@H]2CC[C@H]3[C@@H]4CC=C5C[C@@H](N(C)C)CC[C@]5(C)[C@H]4CC[C@]23CN1C targetorsystem="human histamine H3 receptor (Homo sapiens)" observable="Schild slope" numericreadout=1.00
compound="S=C(NC1CCCCC1)N1CCC(c2cnc[nH]2)CC1 [thioperamide]" targetorsystem="human histamine H3 receptor (Homo sapiens)" observable="Schild slope" numericreadout=1.00

Recorded Schild slope for c1cc(CN2CCCCC2)cc(OCCCNc2nc3ccccc3s2)c1 , please? 1.04

###

- targetOrSystem: human histamine H3 receptor (Homo sapiens)
- measurementProtocol: CRE-SPAP gene transcription in forskolin-stimulated CHO-H3-SPAP cells
- studyConditions: Log KD values, CRE-SPAP; agonist imetit
Catalogue of pKd values
Scale note: pKd = -log10(concentration in M).

Past entries and their recorded results:
compound="CN(C)CCC(c1ccc(Cl)cc1)c1ccccn1 (stereo not shown) [chlorpheniramine]" numericreadout=5.58
compound="Br.Br.c1nc(CCCC2CCNCC2)c[nH]1 [VUF 5681]" numericreadout=7.85
compound="CC(C1=C(CCN(C)C)Cc2ccccc21)c1ccccn1 (stereo not shown) [dimethindine, dimethindene]" numericreadout=5.60

Here's the next entry for you.
Recorded pKd for Cc1ccc(/C(=C\CN2CCCC2)c2ccccn2)cc1 [triprolidine] , please? 5.43

###

Catalogue of pKd values
- targetOrSystem: human histamine H3 receptor (Homo sapiens)
- measurementProtocol: CRE-SPAP gene transcription in forskolin-stimulated CHO-H3-SPAP cells
- studyConditions: Log KD values, CRE-SPAP; agonist immethridine
Scale note: pKd = -log10(concentration in M).

compound="CN(C)CCC(c1ccc(Cl)cc1)c1ccccn1 (stereo not shown)" observable=pKd numericreadout=5.53
compound=Br.Br.c1nc(CCCC2CCNCC2)c[nH]1 observable=pKd numericreadout=7.79
compound="CC(C1=C(CCN(C)C)Cc2ccccc21)c1ccccn1 (stereo not shown)" observable=pKd numericreadout=5.38

Here's the next entry for you.
Recorded pKd for Cc1ccc(/C(=C\CN2CCCC2)c2ccccn2)cc1 , please? 5.53

###

- targetOrSystem: human histamine H3 receptor (Homo sapiens)
- measurementProtocol: CRE-SPAP gene transcription in forskolin-stimulated CHO-H3-SPAP cells
- studyConditions: CRE-SPAP; agonist N-α-methylhistamine; 3 antagonist concentrations
Catalogue of Schild slope values
Give the figure only, with no unit attached.

molecule="c1cc(CN2CCCCC2)cc(OCCCNc2nc3ccccc3s2)c1 [zolatidine]" numericreadout=1.10
molecule="NC(=NCc1ccc(Cl)cc1)SCCCc1cnc[nH]1 [clobenpropit]" numericreadout=1.08

Write down the reported Schild slope of C[C@H]1[C@H]2CC[C@H]3[C@@H]4CC=C5C[C@@H](N(C)C)CC[C@]5(C)[C@H]4CC[C@]23CN1C [conessine] , test system: human histamine H3 receptor (Homo sapiens). 0.98

Write down the reported Schild slope of S=C(NC1CCCCC1)N1CCC(c2cnc[nH]2)CC1 [thioperamide] , test system: human histamine H3 receptor (Homo sapiens). 0.98

###

- targetOrSystem: UniProtKB Q9Y5N1
- measurementProtocol: CRE-SPAP gene transcription in forskolin-stimulated CHO-H3-SPAP cells
- studyConditions: pKD values, CRE-SPAP; agonist impentamine (first component of the response)
observable: Kd (nM)
Number only, in nM; omit the unit.

Recorded Kd for C[C@H]1[C@H]2CC[C@H]3[C@@H]4CC=C5C[C@@H](N(C)C)CC[C@]5(C)[C@H]4CC[C@]23CN1C [conessine] , please? 4.17

###

- targetOrSystem: UniProt Q9Y5N1
- measurementProtocol: CRE-SPAP gene transcription in forskolin-stimulated CHO-H3-SPAP cells
- studyConditions: CRE-SPAP; agonist S-α-methylhistamine; 3 antagonist concentrations
observable: Schild slope
Give the figure only, with no unit attached.

Past entries and their recorded results:
compound=c1cc(CN2CCCCC2)cc(OCCCNc2nc3ccccc3s2)c1 observable="Schild slope" numericreadout=1.10
compound=C[C@H]1[C@H]2CC[C@H]3[C@@H]4CC=C5C[C@@H](N(C)C)CC[C@]5(C)[C@H]4CC[C@]23CN1C observable="Schild slope" numericreadout=1.08
compound="S=C(NC1CCCCC1)N1CCC(c2cnc[nH]2)CC1 [thioperamide]" observable="Schild slope" numericreadout=1.01

Here's the next entry for you.
Recorded Schild slope for NC(=NCc1ccc(Cl)cc1)SCCCc1cnc[nH]1 , please? 1.09

###

- targetOrSystem: human histamine H3 receptor (Homo sapiens)
- measurementProtocol: CRE-SPAP gene transcription in forskolin-stimulated CHO-H3-SPAP cells
Mark condition met only for IC50 values smaller than 400 nM; exact matches and larger values are condition not met.

compound="N=C(N)SCCc1cnc[nH]1 [imetit]" class="condition met"

Please determine if Cn1cncc1CCN [3-methylhistamine] is below 400 nM in terms of IC50. condition not met

Please determine if CNC(=S)NCCCCc1cnc[nH]1 [burimamide] is below 400 nM in terms of IC50. condition not met

Please determine if c1ccc(COCCCc2c[nH]cn2)cc1 [proxyfan] is below 400 nM in terms of IC50. condition met

Please determine if Cc1nc(N)sc1CCN [amthamine] is below 400 nM in terms of IC50. condition not met

Please determine if Br.Br.c1nc(CCCC2CCNCC2)c[nH]1 [VUF 5681] is below 400 nM in terms of IC50. condition met

Please determine if Cc1nc[nH]c1CCN [4-methylhistamine] is below 400 nM in terms of IC50. condition not met

Please determine if NCCc1ccccn1 [2-pyridylethylamine] is below 400 nM in terms of IC50. condition not met

Please determine if c1nc(CC2CCNCC2)c[nH]1 [immepip] is below 400 nM in terms of IC50. condition met

Please determine if CN(C)CCCSC(=N)N [dimaprit] is below 400 nM in terms of IC50. condition not met

Please determine if c1cc(Cc2cnc[nH]2)ccn1 [immethridine] is below 400 nM in terms of IC50. condition met

Please determine if Cn1cnc(CCN)c1 [1-methylhistamine] is below 400 nM in terms of IC50. condition not met

###

- targetOrSystem: human histamine H3 receptor (Homo sapiens, UniProt Q9Y5N1)
- Sequence (Q9Y5N1 whole entry): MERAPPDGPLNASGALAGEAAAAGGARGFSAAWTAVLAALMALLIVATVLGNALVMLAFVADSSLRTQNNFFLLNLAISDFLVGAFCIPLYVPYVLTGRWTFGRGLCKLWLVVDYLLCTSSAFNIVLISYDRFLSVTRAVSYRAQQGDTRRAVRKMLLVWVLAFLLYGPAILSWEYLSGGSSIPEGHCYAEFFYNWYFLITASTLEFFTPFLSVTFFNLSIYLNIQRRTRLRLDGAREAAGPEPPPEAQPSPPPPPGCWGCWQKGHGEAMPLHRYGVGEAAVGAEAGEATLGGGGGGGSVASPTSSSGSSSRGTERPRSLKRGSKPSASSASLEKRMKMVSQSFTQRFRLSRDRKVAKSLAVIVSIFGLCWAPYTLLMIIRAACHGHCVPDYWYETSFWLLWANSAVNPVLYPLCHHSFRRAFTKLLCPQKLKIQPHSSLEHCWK
- measurementProtocol: CRE-SPAP gene transcription in forskolin-stimulated CHO-H3-SPAP cells
- studyConditions: pKD values, CRE-SPAP; agonist proxyfan
observable: pKd
Scale note: pKd = -log10(concentration in M).

Recorded pKd for C[C@H]1[C@H]2CC[C@H]3[C@@H]4CC=C5C[C@@H](N(C)C)CC[C@]5(C)[C@H]4CC[C@]23CN1C , please? 8.56

###

- targetOrSystem: human histamine H3 receptor (Homo sapiens, UniProt Q9Y5N1)
- measurementProtocol: CRE-SPAP gene transcription in forskolin-stimulated CHO-H3-SPAP cells
- studyConditions: pIC50, CRE-SPAP, second component remaining after PTX, forskolin-stimulated CHO-H3-SPAP cells, 24 hours pre-incubation with PTX
observable: pIC50
Scale note: pIC50 = -log10(concentration in M).

Recorded pIC50 for NCCCCCc1cnc[nH]1 [impentamine] , please? 5.22

###

- targetOrSystem: human histamine H3 receptor (Homo sapiens, UniProt Q9Y5N1)
- measurementProtocol: CRE-SPAP gene transcription in forskolin-stimulated CHO-H3-SPAP cells
- studyConditions: pKD values, CRE-SPAP; agonist N-α-methylhistamine
observable: Kd (nM)
Number only, in nM; omit the unit.

Write down the reported Kd of C[C@H]1[C@H]2CC[C@H]3[C@@H]4CC=C5C[C@@H](N(C)C)CC[C@]5(C)[C@H]4CC[C@]23CN1C , test system: human histamine H3 receptor (Homo sapiens, UniProt Q9Y5N1). 5.37
